Hello, the source for this data is the supplement of paper PMC10981050, in case you need it.

Test system: OCI-AML2;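 also: after 48 h exposure read by CellTiter-Glo luminescence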
Experiment: cell viability relative to vehicle control; higher = less cytotoxic
Settings: 10 µM; SRSF2 genotype: P95H/wt
Structures can show the parent of a compound that is named as a salt.
MEASUREMENT NAME: cell viability (%)
Quick reminder: number only, in %, skip the unit.

Please review the entries below; each comes with its answer.
COC1=C2C[C@@H](C)C[C@H](OC)[C@H](O)[C@@H](C)/C=C(\C)[C@H](OC(N)=O)[C@@H](OC)/C=C\C=C(/C)C(=O)NC(=CC1=O)C2=O : 1.59
COc1cc(N2CCC(N3CCN(C)CC3)CC2)ccc1Nc1ncnc(Nc2ccccc2S(=O)(=O)C(C)C)n1 : 12.6
CN(C)CCC(c1ccc(Cl)cc1)c1ccccn1 (centres undefined) [Chlorpheniramine Maleate] : 99.4

Requested read-out cell viability, target or system OCI-AML2, entry `C=CC(=O)N1CCC[C@@H](n2nc(-c3ccc(Oc4ccccc4)cc3)c(C(N)=O)c2N)C1`;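 also: after 48 h exposure read by CellTiter-Glo luminescence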
48.2
